So I've got a bunch of molecules here, and I need their S: Solubility values.
- assay: Kinetic solubility in water and bio-relevant media (SGF, FaSSIF, FeSSIF) at RT
- Type: physicochemical
- condition.description: FaSSIF, RT, 2 hrs
Value expressed in µg/mL; do not type the unit.

Exercise: What value of S: Solubility has been reported for the following molecule? CCOCc1nc2c(N)nc3ccccc3c2n1CC(C)(C)O [Adipate Type A, resiquimod]
Solution: 4500

Exercise: Which S: Solubility value belongs to CCOCc1nc2c(N)nc3ccccc3c2n1CC(C)(C)O [Maleate Type A, resiquimod] ?
Solution: 2300

Exercise: Returns the measured S: Solubility for the input molecule. Input: CCOCc1nc2c(N)nc3ccccc3c2n1CC(C)(C)O [Freebase Type A]
Solution: 2800

----------
- assay: Kinetic solubility in water and bio-relevant media (SGF, FaSSIF, FeSSIF) at RT
- Type: physicochemical
- condition.description: SGF, RT, 24 hrs
Counter-ions that a name gives are not always drawn. Marks after values point to notes of the source that are not given here.
experimental.endpoint: S: Solubility

Exercise: Consider the compound CCOCc1nc2c(N)nc3ccccc3c2n1CC(C)(C)O [Freebase Type A] and give its measured S: Solubility.
Solution: 5.0 mg/mL

Exercise: Value lookup for S: Solubility; key = CCOCc1nc2c(N)nc3ccccc3c2n1CC(C)(C)O [Adipate Type A, resiquimod]
Solution: 4.7* mg/mL

Exercise: What value of measured S: Solubility is listed for CCOCc1nc2c(N)nc3ccccc3c2n1CC(C)(C)O [Mono-HCl salt Type A, resiquimod] ?
Solution: 4.7* mg/mL

Exercise: Which S: Solubility value belongs to CCOCc1nc2c(N)nc3ccccc3c2n1CC(C)(C)O [Di-HCl salt Type A, resiquimod] ?
Solution: 3.9* mg/mL

Exercise: What value of S: Solubility has been recorded for this entry: CCOCc1nc2c(N)nc3ccccc3c2n1CC(C)(C)O [Malate Type A, resiquimod]
Solution: 4.3* mg/mL

Exercise: For the compound CCOCc1nc2c(N)nc3ccccc3c2n1CC(C)(C)O [Phosphate Type A, resiquimod] , what S: Solubility is on record?
Solution: 4.0* mg/mL

Exercise: Tell me the measured S: Solubility of CCOCc1nc2c(N)nc3ccccc3c2n1CC(C)(C)O [Maleate Type A, resiquimod] , please.
Solution: 1.5 mg/mL

Exercise: Requested read-out: S: Solubility. Entry: CCOCc1nc2c(N)nc3ccccc3c2n1CC(C)(C)O [Sulfate Type A, resiquimod]
Solution: 3.9* mg/mL

----------
- assay: Kinetic solubility in water and bio-relevant media (SGF, FaSSIF, FeSSIF) at RT
- Format: physicochemical
- condition.description: SGF and FeSSIF, simulated gastric fluid, SGF/FeSSIF
experimental.endpoint: solubility kinetic

Exercise: Report solubility kinetic for CCOCc1nc2c(N)nc3ccccc3c2n1CC(C)(C)O [Freebase Type A] please.
Solution: > 4900 µg/mL

----------
- assay: Kinetic solubility in water and bio-relevant media (SGF, FaSSIF, FeSSIF) at RT
- Assay type: physicochemical
- condition.description: SGF, RT, 2 hrs
Where a name gives a salt, the structure may show the parent alone.
experimental.endpoint: S: Solubility

Look over these answered cases.
| molecule | result |
| --- | --- |
| CCOCc1nc2c(N)nc3ccccc3c2n1CC(C)(C)O [Di-HCl salt Type A, resiquimod] | C (C: Clear) |
| CCOCc1nc2c(N)nc3ccccc3c2n1CC(C)(C)O [Adipate Type A, resiquimod] | C (C: Clear) |
| CCOCc1nc2c(N)nc3ccccc3c2n1CC(C)(C)O [Phosphate Type A, resiquimod] | C (C: Clear) |
| CCOCc1nc2c(N)nc3ccccc3c2n1CC(C)(C)O [Freebase Type A] | 3500 µg/mL |
| CCOCc1nc2c(N)nc3ccccc3c2n1CC(C)(C)O [Mono-HCl salt Type A, resiquimod] | C (C: Clear) |
| CCOCc1nc2c(N)nc3ccccc3c2n1CC(C)(C)O [Sulfate Type A, resiquimod] | C (C: Clear) |
| CCOCc1nc2c(N)nc3ccccc3c2n1CC(C)(C)O [Maleate Type A, resiquimod] | 1500 µg/mL |

With those in mind, consider the next molecule.
Exercise: Which measured S: Solubility value corresponds to CCOCc1nc2c(N)nc3ccccc3c2n1CC(C)(C)O [Malate Type A, resiquimod] ?
Solution: C (C: Clear)
